- Tested on: Danio rerio larvae (5 dpf)
- procedure.text: habituation (activity change first vs second 5 min of 1-s interval sound, period 17) minus DMSO control (percentage points); higher = larger habituation measure than DMSO larvae
- test.parameters: 10 µM; exposure time: 3 h pre-incubation + 3 h imaging
readout.label: habituation

| compound | readout.number |
| --- | --- |
| CC(=O)NC[C@H]1CN(c2ccc(N3CCOCC3)c(F)c2)C(=O)O1 | -3.73 |
| CN1CCN(CCCN2c3ccccc3Sc3ccc(Cl)cc32)CC1 [Prochlorperazine dimaleate] | -8.1 |
| CO[C@H]1/C=C/O[C@@]2(C)Oc3c(C)c(O)c4c(O)c(c5c(nc6cc(C)ccn65)c4c3C2=O)NC(=O)/C(C)=C\C=C\[C@H](C)[C@H](O)[C@@H](C)[C@@H](O)[C@@H](C)[C@H](OC(C)=O)[C@@H]1C | -3.24 |

###

- Test system: Danio rerio larvae (5 dpf)
- procedure.text: 1-h baseline activity (% time moving, periods 1-6) minus DMSO control (percentage points); higher = more locomotor activity than DMSO larvae
- test.parameters: 10 µM; exposure time: 3 h pre-incubation + 3 h imaging
1-h baseline activity listing for selected compounds.
readout.label: 1-h baseline activity

| compound | readout.label | readout.number |
| --- | --- | --- |
| COc1c(C)c2c(c(O)c1C/C=C(\C)CCC(=O)OCCN1CCOCC1)C(=O)OC2 [Mycophenolate mofetil] | 1-h baseline activity | -3.96 |
| O=C(O)CCCc1ccccc1 [Sodium 4-Phenylbutyrate] | 1-h baseline activity | 0.969 |
| CCOC(=O)C1=C(COCCN)NC(C)=C(C(=O)OC)C1c1ccccc1Cl (centres undefined) [Amlodipine besylate] | 1-h baseline activity | 0.364 |
| C[C@H](Cc1cc2c(c(C(N)=O)c1)N(CCCO)CC2)NCCOc1ccccc1OCC(F)(F)F | 1-h baseline activity | -3.52 |
| NS(=O)(=O)Cc1noc2ccccc12 [Zonisamide] | 1-h baseline activity | 2.49 |
| C=CC(=O)N1CCC[C@@H](n2nc(-c3ccc(Oc4ccccc4)cc3)c3c(N)ncnc32)C1 | 1-h baseline activity | -7.48 |
| Nc1cc(N2CCCCC2)nc(N)[n+]1[O-] | 1-h baseline activity | 1.13 |
| COc1ccc(Cl)cc1C(=O)NCCc1ccc(S(=O)(=O)NC(=O)NC2CCCCC2)cc1 [Glibenclamide] | 1-h baseline activity | -0.0251 |
| CCOc1nc2cccc(C(=O)O)c2n1Cc1ccc(-c2ccccc2-c2nnn[nH]2)cc1 | 1-h baseline activity | 2.98 |

###

Overview of reported combined optomotor response across a group of compounds:
- System: Danio rerio larvae (5 dpf)
- procedure.text: combined optomotor response (time in upper well half, down vs up moving lines, periods 7-14) minus DMSO control (percentage points); higher = stronger optomotor response than DMSO larvae
- test.parameters: 10 µM; exposure time: 3 h pre-incubation + 3 h imaging
Counter-ions that a name gives are not always drawn.
readout.label: combined optomotor response

| compound | readout.number |
| --- | --- |
| N#C[C@@H]1C[C@@H]2C[C@@H]2N1C(=O)[C@@H](N)C12CC3CC(CC(O)(C3)C1)C2 [Saxagliptin hydrochloride] | -2.67 |
| CN[C@H]1CC[C@@H](c2ccc(Cl)c(Cl)c2)c2ccccc21 [Sertraline hydrochloride] | -6.63 |
| NS(=O)(=O)c1cc2c(cc1Cl)NC(C1CC3C=CC1C3)NS2(=O)=O (configuration not stated) [Cyclothiazide] | 0.296 |
| CCCCCCCN(CC)CCCC(O)c1ccc(NS(C)(=O)=O)cc1 (configuration not stated) [Ibutilide hemifumarate] | 5.81 |
| CCCC1O[C@@H]2C[C@H]3[C@@H]4CCC5=CC(=O)C=C[C@]5(C)[C@H]4[C@@H](O)C[C@]3(C)[C@]2(C(=O)CO)O1 (some centres not stated) [Budesonide] | 2.27 |
| CCCc1nn(C)c2c(=O)[nH]c(-c3cc(S(=O)(=O)N4CCN(C)CC4)ccc3OCC)nc12 [Sildenafil citrate] | -0.855 |
| CC(C)COCC(CN(Cc1ccccc1)c1ccccc1)N1CCCC1 (configuration not stated) [Bepridil hydrochloride] | 8.48 |

###

- System: Danio rerio larvae (5 dpf)
- procedure.text: excitability (activity period 17 minus period 16, 1-s interval sound) minus DMSO control (percentage points); higher = more acoustic excitability than DMSO larvae
- test.parameters: 10 µM; exposure time: 3 h pre-incubation + 3 h imaging
Structures can show the parent of a compound that is named as a salt.
Items are presented alongside their recorded excitability.

| compound | excitability |
| --- | --- |
| CC(C)c1nc(CN(C)C(=O)N[C@H](C(=O)N[C@@H](Cc2ccccc2)C[C@H](O)[C@H](Cc2ccccc2)NC(=O)OCc2cncs2)C(C)C)cs1 | 8.43 |
| CC#C[C@]1(O)CC[C@H]2[C@@H]3CCC4=CC(=O)CCC4=C3[C@@H](c3ccc(N(C)C)cc3)C[C@@]21C | 5.63 |
| Cn1cnc([N+](=O)[O-])c1Sc1ncnc2[nH]cnc12 | 0.781 |
| C[C@]12CC[C@@H]3c4ccc(O)cc4C[C@@H](CCCCCCCCC[S+]([O-])CCCC(F)(F)C(F)(F)F)[C@H]3[C@@H]1CC[C@@H]2O (stereo partly specified) | 3.06 |
| COc1ccc([C@@H]2Sc3ccccc3N(CCN(C)C)C(=O)[C@@H]2OC(C)=O)cc1 [Diltiazem hydrochloride] | 1.06 |
| CO[C@H]1/C=C/O[C@@]2(C)Oc3c(C)c(O)c4c(O)c(c5c(nc6cc(C)ccn65)c4c3C2=O)NC(=O)/C(C)=C\C=C\[C@H](C)[C@H](O)[C@@H](C)[C@@H](O)[C@@H](C)[C@H](OC(C)=O)[C@@H]1C | 5.77 |

###

- Test system: Danio rerio larvae (5 dpf)
- procedure.text: combined optomotor response (time in upper well half, down vs up moving lines, periods 7-14) minus DMSO control (percentage points); higher = stronger optomotor response than DMSO larvae
- test.parameters: 10 µM; exposure time: 3 h pre-incubation + 3 h imaging
Counter-ions that a name gives are not always drawn.

| compound | combined optomotor response |
| --- | --- |
| C/C(O)=C(\C#N)C(=O)Nc1ccc(C(F)(F)F)cc1 [Teriflunomide] | -4.96 |
| Brc1c(NC2=NCCN2)ccc2nccnc12 | 5.01 |
| Nc1cccc2c1CN(C1CCC(=O)NC1=O)C2=O (configuration not stated) [Lenalidomide] | 1.12 |
| CC(=O)O[C@H]1C(=O)[C@@]2(C)[C@H]([C@H](OC(=O)c3ccccc3)[C@]3(O)C[C@H](OC(=O)[C@H](O)[C@@H](NC(=O)c4ccccc4)c4ccccc4)C(C)=C1C3(C)C)[C@]1(OC(C)=O)CO[C@@H]1C[C@@H]2O | -0.695 |
| Cc1nnc(C(C)C)n1C1C[C@H]2CC[C@@H](C1)N2CC[C@H](NC(=O)C1CCC(F)(F)CC1)c1ccccc1 (stereo in doubt) | 0.791 |
| CCCc1nc(C(C)(C)O)c(C(=O)O)n1Cc1ccc(-c2ccccc2-c2nnn[nH]2)cc1 | 1.99 |
| COc1ccccc1OCCNCC(O)COc1cccc2[nH]c3ccccc3c12 (configuration not stated) | -1.8 |
| CCOC(=O)[C@H](CCc1ccccc1)N[C@@H](C)C(=O)N1[C@H](C(=O)O)C[C@@H]2CCC[C@@H]21 | 3.49 |
| COc1cc2nc(N3CCN(C(=O)C4COc5ccccc5O4)CC3)nc(N)c2cc1OC (configuration not stated) [Doxazosin mesylate] | -3.96 |
| O=C(c1ccc(OCCN2CCCCC2)cc1)c1c(-c2ccc(O)cc2)sc2cc(O)ccc12 [Raloxifene hydrochloride] | -1.27 |
| CCOC(=O)[C@H](CCc1ccccc1)N[C@H]1CCc2ccccc2N(CC(=O)O)C1=O [Benazepril hydrochloride] | 5.66 |
| C=C1[C@H](CO)[C@@H](O)C[C@@H]1n1cnc2c(=O)[nH]c(N)nc21 | 3.44 |
| CCOc1ccccc1OCCN[C@H](C)Cc1ccc(OC)c(S(N)(=O)=O)c1 [Tamsulosin hydrochloride] | 4.93 |
| CC(=O)NC[C@H]1CN(c2ccc(N3CCOCC3)c(F)c2)C(=O)O1 | 6.27 |
| Clc1ccccc1C(c1ccccc1)(c1ccccc1)n1ccnc1 | -7.18 |
| CC(=O)Oc1ccccc1C(=O)O | -1.47 |
| Nc1nc(Cl)nc2c1ncn2[C@@H]1O[C@H](CO)[C@@H](O)[C@@H]1F | 4.66 |

###

- Tested on: Danio rerio larvae (5 dpf)
- procedure.text: excitability (activity period 17 minus period 16, 1-s interval sound) minus DMSO control (percentage points); higher = more acoustic excitability than DMSO larvae
- test.parameters: 10 µM; exposure time: 3 h pre-incubation + 3 h imaging
Structures can show the parent of a compound that is named as a salt.
Please use TRUE whenever excitability is not below 4, and FALSE whenever it is.

| molecule | target.or.test.system | category.label |
| --- | --- | --- |
| COc1cc2nc(N3CCN(C(=O)c4ccco4)CC3)nc(N)c2cc1OC [Prazosin hydrochloride] | Danio rerio larvae (5 dpf) | TRUE |
| O=C(Nc1c(Cl)cncc1Cl)c1ccc(OC(F)F)c(OCC2CC2)c1 [Roflumilast] | Danio rerio larvae (5 dpf) | TRUE |
| C=C1[C@H](CO)[C@@H](O)C[C@@H]1n1cnc2c(=O)[nH]c(N)nc21 [Entecavir] | Danio rerio larvae (5 dpf) | FALSE |
| O=C(O)CCCc1ccccc1 [Sodium 4-Phenylbutyrate] | Danio rerio larvae (5 dpf) | FALSE |
| CCC(=O)O[C@]1(C(=O)SCF)[C@H](C)C[C@H]2[C@@H]3C[C@H](F)C4=CC(=O)C=C[C@]4(C)[C@@]3(F)[C@@H](O)C[C@@]21C [Fluticasone propionate] | Danio rerio larvae (5 dpf) | FALSE |
| CCCCc1nc(Cl)c(CO)n1Cc1ccc(-c2ccccc2-c2nnn[nH]2)cc1 [Losartan potassium] | Danio rerio larvae (5 dpf) | TRUE |
| CC(C)c1nc(N(C)S(C)(=O)=O)nc(-c2ccc(F)cc2)c1/C=C/[C@@H](O)C[C@@H](O)CC(=O)O [Rosuvastatin calcium] | Danio rerio larvae (5 dpf) | FALSE |
| CCCc1nc(C(C)(C)O)c(C(=O)O)n1Cc1ccc(-c2ccccc2-c2nnn[nH]2)cc1 [Olmesartan] | Danio rerio larvae (5 dpf) | FALSE |
| CC1CNc2c(cccc2S(=O)(=O)N[C@@H](CCCNC(=N)N)C(=O)N2CC[C@@H](C)C[C@@H]2C(=O)O)C1 (stereo partly specified) [Argatroban] | Danio rerio larvae (5 dpf) | FALSE |
| CCOc1cc(CC(=O)N[C@@H](CC(C)C)c2ccccc2N2CCCCC2)ccc1C(=O)O [Repaglinide] | Danio rerio larvae (5 dpf) | TRUE |
| C#C[C@]1(O)CC[C@H]2[C@@H]3CCC4=CC(=O)CC[C@@H]4[C@H]3CC[C@@]21CC [Levonorgestrel] | Danio rerio larvae (5 dpf) | FALSE |
| CC(=O)NC[C@H]1CN(c2ccc(N3CCOCC3)c(F)c2)C(=O)O1 [Linezolid] | Danio rerio larvae (5 dpf) | TRUE |
| CC(C)n1c(/C=C/C(O)CC(O)CC(=O)O)c(-c2ccc(F)cc2)c2ccccc21 (stereo unspecified) [Fluvastatin sodium] | Danio rerio larvae (5 dpf) | FALSE |
| Nc1nc2[nH]cc(CCc3ccc(C(=O)N[C@@H](CCC(=O)O)C(=O)O)cc3)c2c(=O)[nH]1 [Pemetrexed] | Danio rerio larvae (5 dpf) | FALSE |
| COc1cc2nc(N3CCN(C(=O)C4COc5ccccc5O4)CC3)nc(N)c2cc1OC (stereo unspecified) [Doxazosin mesylate] | Danio rerio larvae (5 dpf) | TRUE |
| Cc1ccc(NC(=O)c2ccc(CN3CCN(C)CC3)cc2)cc1Nc1nccc(-c2cccnc2)n1 [Imatinib mesylate] | Danio rerio larvae (5 dpf) | TRUE |
| Nc1nc2c(ncn2COCCO)c(=O)[nH]1 [Acyclovir] | Danio rerio larvae (5 dpf) | FALSE |
| Nc1ncn([C@H]2C[C@H](O)[C@@H](CO)O2)c(=O)n1 [Decitabine] | Danio rerio larvae (5 dpf) | TRUE |
| CC(=O)Oc1ccccc1C(=O)O [Aspirin] | Danio rerio larvae (5 dpf) | TRUE |
| C/C(O)=C(\C#N)C(=O)Nc1ccc(C(F)(F)F)cc1 [Teriflunomide] | Danio rerio larvae (5 dpf) | TRUE |
| Cc1nc(-c2ccc(OCC(C)C)c(C#N)c2)sc1C(=O)O [Febuxostat] | Danio rerio larvae (5 dpf) | FALSE |
| CN1CCN2c3ncccc3Cc3ccccc3C2C1 (stereo unspecified) [Mirtazapine] | Danio rerio larvae (5 dpf) | TRUE |
| CCOC(=O)[C@H](CCc1ccccc1)N[C@H]1CCc2ccccc2N(CC(=O)O)C1=O [Benazepril hydrochloride] | Danio rerio larvae (5 dpf) | FALSE |
| Cc1nnc(C(C)C)n1C1C[C@H]2CC[C@@H](C1)N2CC[C@H](NC(=O)C1CCC(F)(F)CC1)c1ccccc1 (stereo in doubt) [Maraviroc] | Danio rerio larvae (5 dpf) | TRUE |
| COc1c(C)c2c(c(O)c1C/C=C(\C)CCC(=O)O)C(=O)OC2 [Mycophenolic acid] | Danio rerio larvae (5 dpf) | FALSE |
| CN(C)CCc1c[nH]c2ccc(Cn3cncn3)cc12 [Rizatriptan benzoate] | Danio rerio larvae (5 dpf) | FALSE |
| O=C(c1ccc(OCCN2CCCCC2)cc1)c1c(-c2ccc(O)cc2)sc2cc(O)ccc12 [Raloxifene hydrochloride] | Danio rerio larvae (5 dpf) | TRUE |
| CCc1ccc(CCOc2ccc(CC3SC(=O)NC3=O)cc2)nc1 (stereo unspecified) [Pioglitazone hydrochloride] | Danio rerio larvae (5 dpf) | TRUE |
| Cc1cn([C@H]2C=C[C@@H](CO)O2)c(=O)[nH]c1=O [Stavudine] | Danio rerio larvae (5 dpf) | FALSE |
| CCN(CC)CCNC(=O)c1c(C)[nH]c(/C=C2\C(=O)Nc3ccc(F)cc32)c1C [Sunitinib malate] | Danio rerio larvae (5 dpf) | TRUE |
| CC(=O)O[C@H]1C(=O)[C@@]2(C)[C@H]([C@H](OC(=O)c3ccccc3)[C@]3(O)C[C@H](OC(=O)[C@H](O)[C@@H](NC(=O)c4ccccc4)c4ccccc4)C(C)=C1C3(C)C)[C@]1(OC(C)=O)CO[C@@H]1C[C@@H]2O [Taxol] | Danio rerio larvae (5 dpf) | FALSE |
